// values below are reported Maximum % KD in DRC
Test system: Bach1 mRNA
TEST: Dose-response curve of Bach1 mRNA knock-down in human A549 cells
Format: cell-based
STUDY_CONDITIONS: Table 4, Bach1 mRNA, 12 concentrations 0.083 fM to 30 nM, three experiments, mean ± standard deviation
// return numeric value only (unit: %, not printed)

Solved entries:
[
  {
    "SUBSTANCE": "29988-DC (sense AUUUGAACCUUUAAUUCAGTT; antisense CUGAAUUAAAGGUUCAAAUUU; inverted abasic end caps, TT overhangs, modified nucleotides, further chemistry not given here)",
    "RECORDED_NUMBER": 84
  },
  {
    "SUBSTANCE": "29964-DC (sense GAUUUGCAGGUGAUGUUAATT; antisense UUAACAUCACCUGCAAAUCUU; inverted abasic end caps, TT overhangs, modified nucleotides, further chemistry not given here)",
    "RECORDED_NUMBER": 87
  },
  {
    "SUBSTANCE": "29961-DC (sense CUACACUGCUAAACUGAUUTT; antisense AAUCAGUUUAGCAGUGUAGUU; inverted abasic end caps, TT overhangs, modified nucleotides, further chemistry not given here)",
    "RECORDED_NUMBER": 89
  }
]

Shifting focus to the substance that follows.
Recorded Maximum % KD in DRC (substance 29956-DC (sense GUCUGAGUGUCCGUGGUUATT; antisense UAACCACGGACACUCAGACUU; inverted abasic caps (B), 2'-modified nucleotides, further chemistry not given here) ): 80

----------
System: Bach1 mRNA
TEST: Initial screen: Bach1 mRNA knock-down in mouse NIH 3T3 cells (96-well transfection, quantitative RT-PCR)
Type: cell-based
STUDY_CONDITIONS: mouse NIH3T3 cells, n = 2, 24 hrs post-transfection, protocol 10 nM siNA
[invAb] = inverted abasic unit; m = 2'-O-methyl; r = 2'-OH (RNA); f = 2'-fluoro
READOUT: % KD (%)
Give the quantity in %, number only.

Recorded result, 29960-DC: Bach1 siNA duplex, target site 1377; sense B ccAAAGAuGGcucAGAAcA TTB (SEQ 69); antisense UGUucuGAGccAucuuuGGUU (SEQ 70) (sense CCAAAGAUGGCUCAGAACATT; antisense UGUUCUGAGCCAUCUUUGGUU; sense: DNA at AGT, 2'-fluoro at CU, [invAb] at 5' end, 3' end, backbone not given here; antisense: sugars from the 5' end rrrfffmmmffmfffffmmmm, backbone not given here) , % KD: 5.9

----------
Tested on: Bach1 mRNA
TEST: Initial screen: Bach1 mRNA knock-down in mouse NIH 3T3 cells (96-well transfection, quantitative RT-PCR)
Assay type: cell-based
STUDY_CONDITIONS: mouse NIH3T3 cells, n = 2, 24 hrs post-transfection, protocol 10 nM siNA
[invAb] = inverted abasic unit; m = 2'-O-methyl; r = 2'-OH (RNA); f = 2'-fluoro
READOUT: % KD (%)
Numbers only; they are read as %.

Test item 29950-DC: Bach1 siNA duplex, target site 470; sense B GAGGAAuccuGcuuucAGu TTB (SEQ 49); antisense ACUGAAAGcAGGAuuccucUU (SEQ 50) (sense GAGGAAUCCUGCUUUCAGUTT; antisense ACUGAAAGCAGGAUUCCUCUU; sense: DNA at AGT, 2'-fluoro at CU, [invAb] at 5' end, 3' end, backbone not given here; antisense: sugars from the 5' end rrrmmmmmfmmmmffffffmm, backbone not given here) ; Bach1 mRNA; reported % KD was 42.5

Tested system Bach1 mRNA; % KD recorded for 29957-DC (sense GCAGUUACUUCCACUCAAGTT; antisense CUUGAGUGGAAGUAACUGCUU; inverted abasic end caps, TT overhangs, modified nucleotides, further chemistry not given here) was 42.4

Tested on Bach1 mRNA, the item 29988-DC (sense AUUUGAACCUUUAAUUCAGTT; antisense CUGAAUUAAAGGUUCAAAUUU; inverted abasic end caps, TT overhangs, modified nucleotides, further chemistry not given here) showed % KD equal to 71.3

----------
List of % KD GAPDH values.
System: human GAPDH mRNA transcript
TEST: GAPDH specificity screen in human A549 cells
Format: cell-based
STUDY_CONDITIONS: Table 5; 1 nM siNA, STAT 4 as endogenous control, relative to universal control siNA
Quick note: give the figure in %, leave out the unit.

[
  {
    "SUBSTANCE": "29947-DC (sense GGAAUCCUGCUUUCAGUUUTT; antisense AAACUGAAAGCAGGAUUCCUU; inverted abasic caps (B), 2'-modified nucleotides, further chemistry not given here)",
    "SYSTEM": "human GAPDH mRNA transcript",
    "UNIT_SYMBOL": "%",
    "% KD GAPDH": "−15"
  },
  {
    "SUBSTANCE": "29957-DC (sense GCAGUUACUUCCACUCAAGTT; antisense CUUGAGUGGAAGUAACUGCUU; inverted abasic end caps, TT overhangs, modified nucleotides, further chemistry not given here)",
    "SYSTEM": "human GAPDH mRNA transcript",
    "UNIT_SYMBOL": "%",
    "% KD GAPDH": "−10"
  },
  {
    "SUBSTANCE": "29964-DC (sense GAUUUGCAGGUGAUGUUAATT; antisense UUAACAUCACCUGCAAAUCUU; inverted abasic end caps, TT overhangs, modified nucleotides, further chemistry not given here)",
    "SYSTEM": "human GAPDH mRNA transcript",
    "UNIT_SYMBOL": "%",
    "% KD GAPDH": 14
  },
  {
    "SUBSTANCE": "29988-DC (sense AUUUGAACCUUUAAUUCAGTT; antisense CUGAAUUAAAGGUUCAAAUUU; inverted abasic end caps, TT overhangs, modified nucleotides, further chemistry not given here)",
    "SYSTEM": "human GAPDH mRNA transcript",
    "UNIT_SYMBOL": "%",
    "% KD GAPDH": 23
  },
  {
    "SUBSTANCE": "29961-DC (sense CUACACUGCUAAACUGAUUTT; antisense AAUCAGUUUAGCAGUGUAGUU; inverted abasic end caps, TT overhangs, modified nucleotides, further chemistry not given here)",
    "SYSTEM": "human GAPDH mRNA transcript",
    "UNIT_SYMBOL": "%",
    "% KD GAPDH": 7
  }
]

Tested on human GAPDH mRNA transcript, the item 29956-DC (sense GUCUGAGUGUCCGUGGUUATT; antisense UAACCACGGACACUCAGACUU; inverted abasic caps (B), 2'-modified nucleotides, further chemistry not given here) showed % KD GAPDH equal to −18

----------
System: Bach1 mRNA
TEST: Dose-response curve of Bach1 mRNA knock-down in human A549 cells
Type: cell-based
STUDY_CONDITIONS: Table 6, mean ± SD
READOUT: IC50
Field note: include the unit after the figure.

Below: 5 substances and their reported IC50.
[
  {
    "SUBSTANCE": "29961-DC (sense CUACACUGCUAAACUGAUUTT; antisense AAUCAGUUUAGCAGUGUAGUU; inverted abasic end caps, TT overhangs, modified nucleotides, further chemistry not given here)",
    "SYSTEM": "Bach1 mRNA",
    "RESULT": "10 pM"
  },
  {
    "SUBSTANCE": "29956-DC (sense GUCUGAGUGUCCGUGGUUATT; antisense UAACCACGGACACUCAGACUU; inverted abasic caps (B), 2'-modified nucleotides, further chemistry not given here)",
    "SYSTEM": "Bach1 mRNA",
    "RESULT": "28 pM"
  },
  {
    "SUBSTANCE": "29988-DC (sense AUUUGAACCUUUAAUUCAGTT; antisense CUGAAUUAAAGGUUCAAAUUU; inverted abasic end caps, TT overhangs, modified nucleotides, further chemistry not given here)",
    "SYSTEM": "Bach1 mRNA",
    "RESULT": "63 pM"
  },
  {
    "SUBSTANCE": "29957-DC (sense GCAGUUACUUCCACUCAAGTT; antisense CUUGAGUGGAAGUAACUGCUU; inverted abasic end caps, TT overhangs, modified nucleotides, further chemistry not given here)",
    "SYSTEM": "Bach1 mRNA",
    "RESULT": "39 pM"
  },
  {
    "SUBSTANCE": "29964-DC (sense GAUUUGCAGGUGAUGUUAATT; antisense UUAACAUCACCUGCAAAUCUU; inverted abasic end caps, TT overhangs, modified nucleotides, further chemistry not given here)",
    "SYSTEM": "Bach1 mRNA",
    "RESULT": "27 pM"
  }
]

Kindly consider the entry below.
Summary for this substance, 29947-DC (sense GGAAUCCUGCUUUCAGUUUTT; antisense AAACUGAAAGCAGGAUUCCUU; inverted abasic caps (B), 2'-modified nucleotides, further chemistry not given here) : IC50 is 27 pM
